Quick reference for melting point among some compounds

Use the examples below as a reference point.
> print(dat)
                                   compound     meas.value
1          CN(C)C1(CNc2ccc(Cl)nc2)CC1.Cl.Cl  158 to 160 °C
2      Cl.Cl.NC1(CNc2cccnc2)CC1 [Example 4]  195 to 199 °C
3     CNC1(CNc2cccnc2)CC1.Cl.Cl [Example 1]  190 to 195 °C
4              CNC1(CNc2ccc(C)nc2)CC1.Cl.Cl  230 to 232 °C
5  CNC1(CN(C)c2cccnc2)CC1.Cl.Cl [Example 2]  180 to 184 °C

# input compound: `CN(CC1(N(C)C)CC1)c1cccnc1.Cl.Cl` ; wanted: its melting point
198 to 201 °C

# input compound: `CN(CC1(N)CC1)c1cccnc1.Cl.Cl` ; wanted: its melting point
218 to 222 °C

# input compound: `CNC1(CN(Cc2ccccc2)c2ccc(Cl)nc2)CC1.Cl.Cl` ; wanted: its melting point
156 to 157 °C

# input compound: `CN(C)C1(CN(Cc2ccccc2)c2ccc(Cl)nc2)CC1.Cl` ; wanted: its melting point
190 to 192 °C

###

molecular target: type α4β2 central nicotinic receptors (Rattus norvegicus, UniProt P09483+P12390); construct: from tissue; host or cells: rat brain membranes; assay: Displacement of binding of [3H]-cytisine on type α4β2 nicotinic receptors of rat brain
Sequence (P09483 31-630): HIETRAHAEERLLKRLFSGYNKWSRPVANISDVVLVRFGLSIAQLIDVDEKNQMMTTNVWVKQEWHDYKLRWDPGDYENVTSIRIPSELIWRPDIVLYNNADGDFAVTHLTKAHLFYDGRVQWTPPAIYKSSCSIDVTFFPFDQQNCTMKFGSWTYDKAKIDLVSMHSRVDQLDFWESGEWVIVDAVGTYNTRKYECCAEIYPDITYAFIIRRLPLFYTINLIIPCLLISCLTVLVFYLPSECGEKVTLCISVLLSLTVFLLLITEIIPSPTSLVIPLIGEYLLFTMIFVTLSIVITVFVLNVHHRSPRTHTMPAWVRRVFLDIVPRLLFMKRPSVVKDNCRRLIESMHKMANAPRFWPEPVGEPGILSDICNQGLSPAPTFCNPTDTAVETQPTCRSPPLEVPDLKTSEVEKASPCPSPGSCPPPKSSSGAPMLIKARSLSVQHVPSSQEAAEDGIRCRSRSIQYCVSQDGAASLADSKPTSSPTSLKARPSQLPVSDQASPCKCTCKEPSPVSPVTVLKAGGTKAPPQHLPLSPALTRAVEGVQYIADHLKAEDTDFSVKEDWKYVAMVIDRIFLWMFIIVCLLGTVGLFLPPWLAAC
Sequence (P12390 25-500): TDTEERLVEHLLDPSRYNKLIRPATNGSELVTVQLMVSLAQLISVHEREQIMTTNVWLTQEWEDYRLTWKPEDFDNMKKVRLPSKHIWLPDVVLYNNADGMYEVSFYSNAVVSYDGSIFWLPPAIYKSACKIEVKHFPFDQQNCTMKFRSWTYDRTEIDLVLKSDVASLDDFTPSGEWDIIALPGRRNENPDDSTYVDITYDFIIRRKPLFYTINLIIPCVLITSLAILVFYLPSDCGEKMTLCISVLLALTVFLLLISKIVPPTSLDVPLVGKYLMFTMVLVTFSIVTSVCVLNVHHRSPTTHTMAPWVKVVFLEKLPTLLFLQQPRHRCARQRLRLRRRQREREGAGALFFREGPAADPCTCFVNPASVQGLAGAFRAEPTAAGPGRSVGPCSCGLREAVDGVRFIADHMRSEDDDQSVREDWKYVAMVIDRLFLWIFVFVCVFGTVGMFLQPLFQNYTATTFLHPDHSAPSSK
REPORTED_METRIC: Ki
Write your answer as a measured quantity: the number, then the unit.

> print(dat)
                                   molecule  meas.value
1  CNC1(CN(C)c2cccnc2)CC1.Cl.Cl [Example 2, dihydrochloride]       15 nM

Consider the additional molecule presented here.
# input molecule: CNC1(CNc2cccnc2)CC1.Cl.Cl [Example 1, dihydrochloride] ; wanted: its Ki
34 nM

###

target: type α7 central nicotinic receptors (Rattus norvegicus, UniProt Q05941)
Sequence (Q05941 23-502): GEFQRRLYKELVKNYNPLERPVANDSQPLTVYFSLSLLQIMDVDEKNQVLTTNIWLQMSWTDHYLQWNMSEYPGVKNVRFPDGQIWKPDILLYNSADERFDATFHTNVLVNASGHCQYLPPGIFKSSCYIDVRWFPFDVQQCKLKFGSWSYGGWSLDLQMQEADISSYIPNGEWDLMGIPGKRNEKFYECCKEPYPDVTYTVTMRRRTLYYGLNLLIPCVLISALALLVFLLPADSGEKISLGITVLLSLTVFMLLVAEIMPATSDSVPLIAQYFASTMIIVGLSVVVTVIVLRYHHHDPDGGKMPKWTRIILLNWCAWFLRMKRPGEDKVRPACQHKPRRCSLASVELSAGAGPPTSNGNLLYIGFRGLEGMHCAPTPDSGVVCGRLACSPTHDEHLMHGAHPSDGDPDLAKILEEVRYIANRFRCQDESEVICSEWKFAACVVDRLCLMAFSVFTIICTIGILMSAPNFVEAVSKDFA
REPORTED_METRIC: Ki (µM)
The figure you give is taken to be in µM; do not add the unit.

# input molecule: CNC1(CN(C)c2cccnc2)CC1.Cl.Cl [Example 2, dihydrochloride] ; wanted: its Ki
8.3

###

Quick reference for melting point among some molecules
Counter-ions that a name gives are not always drawn.

> print(dat)
                                   molecule  reported.metric     meas.value
1  CNC1(CN(C)c2ccc(Cl)nc2)CC1 (as salt: hydrochloride) [Example 10, dihydrochloride]    melting point  133 to 136 °C
2  CNC1(CN(C)c2ccc(Br)nc2)CC1.O=C(O)/C=C/C(=O)O    melting point  146 to 150 °C
3       CN(CC1(N(C)C)CC1)c1ccc(Cl)nc1.Cl.Cl    melting point  163 to 166 °C
4              CN(C)C1(CNc2cccnc2)CC1.Cl.Cl    melting point  208 to 210 °C

# input molecule: `CNC1(CN(C)c2ccc(C)nc2)CC1.Cl.Cl` ; wanted: its melting point
112 to 115 °C
